molecular target: S-100b/RAGE interaction (Homo sapiens, UniProt Q15109); construct: generate soluble RAGE (sRAGE) comprised of the V and C domains; experiment: ELISA assay, S-100b binding to sRAGE; conditions: plate-bound S100b, concentration at which 50% signal is inhibited
Sequence (Q15109 23-342 limits assumed): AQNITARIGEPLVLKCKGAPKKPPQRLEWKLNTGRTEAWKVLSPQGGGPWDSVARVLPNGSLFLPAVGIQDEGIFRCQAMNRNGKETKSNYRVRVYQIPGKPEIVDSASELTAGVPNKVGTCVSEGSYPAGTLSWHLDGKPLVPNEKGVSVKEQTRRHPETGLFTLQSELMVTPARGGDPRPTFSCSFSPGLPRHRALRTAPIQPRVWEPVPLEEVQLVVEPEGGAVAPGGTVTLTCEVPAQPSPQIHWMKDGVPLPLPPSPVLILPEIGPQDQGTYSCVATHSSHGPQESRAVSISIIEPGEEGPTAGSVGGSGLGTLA
pIC50: −log10 of the molar value. Structures can show the parent of a compound that is named as a salt.
QUANTITY_KIND: pIC50

1: CCCCOc1cc(C(=O)OCCN(CC)CC)ccc1NC(=O)[C@@H](Cc1ccccc1)NC(=O)OC(C)(C)C
2: CCN(CC)CCOC(=O)c1ccc(NC(=O)[C@H](N)Cc2ccc(OCc3ccccc3)cc2)c(OCC(C)C)c1 [Example 9, Dihydrochloride]
3: CCCCOc1cc(C(=O)OCCN(CC)CC)ccc1NC(=O)[C@@H](Cc1ccc2ccccc2c1)NC(C)=O
## Task Arrange items by their pIC50 values in increasing order. Write the labels out in the order the request specifies.
## Result 3, 2, 1
(3: 4.82, 2: 5.80, 1: 6.02)
